The origin of these recorded values is the supplement of paper PMC7877785.

- assay details: self-splicing fitness, log relative to wild type (ln ratio); higher = more splicing; Tetrahymena group I intron in knt gene, E. coli kanamycin selection, DiMSum; sequences stand for … in CUCUCU…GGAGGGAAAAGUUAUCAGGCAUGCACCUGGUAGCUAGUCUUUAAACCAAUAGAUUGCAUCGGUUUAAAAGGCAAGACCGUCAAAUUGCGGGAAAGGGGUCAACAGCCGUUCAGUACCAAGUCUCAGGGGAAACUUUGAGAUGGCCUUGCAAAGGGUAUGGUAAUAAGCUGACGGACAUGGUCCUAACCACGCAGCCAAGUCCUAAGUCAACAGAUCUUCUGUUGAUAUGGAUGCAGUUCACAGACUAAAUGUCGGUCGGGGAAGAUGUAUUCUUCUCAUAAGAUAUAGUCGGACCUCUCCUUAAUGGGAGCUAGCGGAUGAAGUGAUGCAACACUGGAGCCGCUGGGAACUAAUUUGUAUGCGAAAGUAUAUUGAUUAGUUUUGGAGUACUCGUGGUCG;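 note: selection with 25 µg/mL kanamycin versus none on LB agar overnight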
- cond: 30 °C
The entries below are paired with their reported self-splicing fitness (ln).
result type: self-splicing fitness (ln)

INSERT INTO measurements (macromolecule_sequence, result_type, measured_result) VALUES
  ('GACAAGCAAUAUUACGGACG', 'self-splicing fitness (ln)', -1.75),
  ('UCCAAGCAAUAUUACGGAUA', 'self-splicing fitness (ln)', -2.57),
  ('GCCAAGCAAUAUUACGUAGG', 'self-splicing fitness (ln)', -3.32);
